Record: AC50 reported on Melanocortin receptor 3 (Homo sapiens, UniProt P41968).
Sequence (P41968 whole entry): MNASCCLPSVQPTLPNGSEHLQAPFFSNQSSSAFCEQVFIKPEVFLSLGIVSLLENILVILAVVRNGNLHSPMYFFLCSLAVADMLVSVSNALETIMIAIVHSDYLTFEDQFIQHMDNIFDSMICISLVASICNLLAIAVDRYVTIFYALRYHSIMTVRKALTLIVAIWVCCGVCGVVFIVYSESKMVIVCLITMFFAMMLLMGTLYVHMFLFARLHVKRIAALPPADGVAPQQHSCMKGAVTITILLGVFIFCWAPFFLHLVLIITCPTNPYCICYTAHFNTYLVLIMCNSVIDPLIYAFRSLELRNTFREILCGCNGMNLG

The cases that follow already have their AC50 on record.
[Q] Return reported AC50 for target or system Melanocortin receptor 3 (Homo sapiens, UniProt P41968), item "CC(=O)[C@H]1CC[C@H]2[C@@H]3C[C@H](C)C4=CC(=O)CC[C@]4(C)[C@H]3[C@@H](O)C[C@]12C" . Note: assay procedure not described here.
[A] > 10 µM

[Q] Return reported AC50 for target or system Melanocortin receptor 3 (Homo sapiens, UniProt P41968), item "COC(=O)[C@H]1[C@H]2C[C@@H]3c4[nH]c5cc(OC)ccc5c4CCN3C[C@H]2C[C@@H](OC(=O)c2cc(OC)c(OC)c(OC)c2)[C@@H]1OC" . Note: assay procedure not described here.
[A] > 10 µM

[Q] Return reported AC50 for target or system Melanocortin receptor 3 (Homo sapiens, UniProt P41968), item CC(=O)c1ccc(S(=O)(=O)NC(=O)NC2CCCCC2)cc1 [ACETOHEXAMIDE] . Note: assay procedure not described here.
[A] > 10 µM

[Q] Return reported AC50 for target or system Melanocortin receptor 3 (Homo sapiens, UniProt P41968), item "CCC1(CCC(C)C)C(=O)NC(=O)NC1=O" . Note: assay procedure not described here.
[A] > 10 µM

[Q] Return reported AC50 for target or system Melanocortin receptor 3 (Homo sapiens, UniProt P41968), item "O=C(O)Cc1ccccc1Oc1ccc(Cl)cc1Cl" . Note: assay procedure not described here.
[A] > 30 µM

---
[Q] Return reported AC50 for target or system Melanocortin receptor 3 (Homo sapiens, UniProt P41968), item "CCOc1nc2cccc(C(=O)O)c2n1Cc1ccc(-c2ccccc2-c2nnn[nH]2)cc1" . Note: assay procedure not described here.
[A] > 30 µM

[Q] Return reported AC50 for target or system Melanocortin receptor 3 (Homo sapiens, UniProt P41968), item CC1(C)S[C@@H]2[C@H](NC(=O)C(C(=O)O)c3ccccc3)C(=O)N2[C@H]1C(=O)O (stereo not given in full) . Note: assay procedure not described here.
[A] > 30 µM

[Q] Return reported AC50 for target or system Melanocortin receptor 3 (Homo sapiens, UniProt P41968), item NC(=O)NC(=O)Cc1ccccc1 [PHENACEMIDE] . Note: assay procedure not described here.
[A] > 10 µM

---

Record: AC50 reported on Adenosine receptor A2a (Homo sapiens).
Sequence (P29274 whole entry): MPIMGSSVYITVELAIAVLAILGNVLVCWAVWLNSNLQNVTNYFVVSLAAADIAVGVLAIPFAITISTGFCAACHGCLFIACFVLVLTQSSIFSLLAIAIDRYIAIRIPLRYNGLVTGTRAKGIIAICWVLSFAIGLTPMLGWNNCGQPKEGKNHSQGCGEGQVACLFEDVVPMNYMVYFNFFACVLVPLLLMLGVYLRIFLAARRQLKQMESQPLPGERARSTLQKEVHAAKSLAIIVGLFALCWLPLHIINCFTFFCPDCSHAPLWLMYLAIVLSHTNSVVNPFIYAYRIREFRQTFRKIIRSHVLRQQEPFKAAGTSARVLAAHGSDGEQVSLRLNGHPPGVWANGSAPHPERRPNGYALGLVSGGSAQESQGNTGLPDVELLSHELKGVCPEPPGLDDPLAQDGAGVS

The cases that follow already have their AC50 on record.
[Q] Using the record for CC(C)Cc1ccc([C@H](C)C(=O)O)cc1 [DEXIBUPROFEN] , state its measured AC50.
[A] > 30 µM

[Q] Using the record for C[C@]12C=CC(=O)C=C1CC[C@@H]1[C@@H]2CC[C@]2(C)OC(=O)CC[C@@H]12 [TESTOLACTONE] , state its measured AC50.
[A] > 10 µM

[Q] Using the record for CC1(C)S[C@@H]2[C@H](NC(=O)C(C(=O)O)c3ccccc3)C(=O)N2[C@H]1C(=O)O (stereo partly specified) [CARBENICILLIN] , state its measured AC50.
[A] > 30 µM

[Q] Using the record for O=C(c1cc(Cc2n[nH]c(=O)c3ccccc23)ccc1F)N1CCN(C(=O)C2CC2)CC1 [OLAPARIB] , state its measured AC50.
[A] > 30 µM

[Q] Using the record for CCC1(c2ccc(N)cc2)CCC(=O)NC1=O (stereo unspecified) [AMINOGLUTETHIMIDE] , state its measured AC50.
[A] > 30 µM

---
[Q] Using the record for CCCN1CC(NS(=O)(=O)N(CC)CC)CC2Cc3c(O)cccc3CC21 (stereo unspecified) [QUINAGOLIDE] , state its measured AC50.
[A] > 30 µM

---

Molecular target: Prostaglandin G/H synthase 1 (Rattus norvegicus, UniProt Q63921); note: assay procedure not described here
Sequence (Q63921 whole entry): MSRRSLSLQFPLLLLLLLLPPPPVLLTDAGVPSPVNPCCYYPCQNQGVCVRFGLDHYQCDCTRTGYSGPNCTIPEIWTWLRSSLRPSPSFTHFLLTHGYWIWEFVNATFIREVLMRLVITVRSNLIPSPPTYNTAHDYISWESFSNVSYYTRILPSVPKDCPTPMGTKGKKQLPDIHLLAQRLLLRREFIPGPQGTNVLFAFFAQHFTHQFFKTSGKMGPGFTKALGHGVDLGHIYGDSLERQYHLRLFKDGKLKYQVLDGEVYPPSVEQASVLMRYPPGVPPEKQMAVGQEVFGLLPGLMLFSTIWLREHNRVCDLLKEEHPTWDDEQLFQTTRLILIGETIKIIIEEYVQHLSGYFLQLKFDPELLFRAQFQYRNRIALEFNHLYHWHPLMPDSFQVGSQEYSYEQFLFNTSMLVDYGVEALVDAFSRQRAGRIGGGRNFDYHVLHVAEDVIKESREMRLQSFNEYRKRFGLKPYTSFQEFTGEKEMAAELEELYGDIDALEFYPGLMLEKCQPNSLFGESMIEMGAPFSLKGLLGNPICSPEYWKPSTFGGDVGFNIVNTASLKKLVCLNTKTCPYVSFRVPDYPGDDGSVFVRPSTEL
Format: functional
value.kind: AC50

The cases that follow already have their AC50 on record.
[Q] Using the record for CCCN1CC(NS(=O)(=O)N(CC)CC)CC2Cc3c(O)cccc3CC21 (configuration not stated) [QUINAGOLIDE] , state its measured AC50.
[A] > 30 µM

[Q] Using the record for "CN(C)CCCN1c2ccccc2CCc2ccccc21" , state its measured AC50.
[A] > 30 µM

[Q] Using the record for "CCOC(=O)c1c(CSc2ccccc2)n(C)c2cc(Br)c(O)c(CN(C)C)c12" , state its measured AC50.
[A] 19 µM

---
[Q] Using the record for "S=P(N1CC1)(N1CC1)N1CC1" , state its measured AC50.
[A] > 30 µM

[Q] Using the record for "O=C(c1cc(Cc2n[nH]c(=O)c3ccccc23)ccc1F)N1CCN(C(=O)C2CC2)CC1" , state its measured AC50.
[A] > 30 µM

[Q] Using the record for CC(C)(Oc1ccc(CCNC(=O)c2ccc(Cl)cc2)cc1)C(=O)O [BEZAFIBRATE] , state its measured AC50.
[A] > 10 µM

[Q] Using the record for "C[C@]12C/C(=C/O)C(=O)C[C@@H]1CC[C@@H]1[C@@H]2CC[C@@]2(C)[C@H]1CC[C@]2(C)O" , state its measured AC50.
[A] 19 µM

---

This section presents compounds with their documented AC50 values.
Target: Muscarinic acetylcholine receptor M2 (Homo sapiens, UniProt P08172); note: assay procedure not described here
Sequence (P08172 whole entry): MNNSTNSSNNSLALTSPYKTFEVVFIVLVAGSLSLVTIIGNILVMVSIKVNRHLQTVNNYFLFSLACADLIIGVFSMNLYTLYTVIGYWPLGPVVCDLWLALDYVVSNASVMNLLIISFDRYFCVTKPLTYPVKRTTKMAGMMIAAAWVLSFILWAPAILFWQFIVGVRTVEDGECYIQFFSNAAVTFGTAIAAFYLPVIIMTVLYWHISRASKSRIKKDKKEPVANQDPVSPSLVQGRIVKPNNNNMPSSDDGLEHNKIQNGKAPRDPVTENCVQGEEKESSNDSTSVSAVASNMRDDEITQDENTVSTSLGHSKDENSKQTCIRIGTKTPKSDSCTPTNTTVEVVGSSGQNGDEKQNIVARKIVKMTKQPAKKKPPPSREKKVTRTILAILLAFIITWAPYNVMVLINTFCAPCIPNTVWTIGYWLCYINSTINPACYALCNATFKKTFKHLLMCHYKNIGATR
Type: functional, cell-based

The cases that follow already have their AC50 on record.
[Q] Return reported AC50 for target or system Muscarinic acetylcholine receptor M2 (Homo sapiens, UniProt P08172), item Cc1ccccc1N1C(=O)c2cc(S(N)(=O)=O)c(Cl)cc2NC1C (stereo unspecified) [METOLAZONE] . Note: assay procedure not described here.
[A] > 10 µM

[Q] Return reported AC50 for target or system Muscarinic acetylcholine receptor M2 (Homo sapiens, UniProt P08172), item CC(C(=O)O)c1ccc2c(c1)CC(=O)c1ccccc1S2 (stereo unspecified) [ZALTOPROFEN] . Note: assay procedure not described here.
[A] > 30 µM

[Q] Return reported AC50 for target or system Muscarinic acetylcholine receptor M2 (Homo sapiens, UniProt P08172), item C[C@@H]1C[C@H]2[C@@H]3C[C@H](F)C4=CC(=O)C=C[C@]4(C)[C@@]3(F)[C@@H](O)C[C@]2(C)[C@@]1(OC(=O)c1ccco1)C(=O)SCF [FLUTICASONE FUROATE] . Note: assay procedure not described here.
[A] > 10 µM

Then there is this compound:
[Q] Return reported AC50 for target or system Muscarinic acetylcholine receptor M2 (Homo sapiens, UniProt P08172), item O=C1Cc2cc(CCN3CCN(c4nsc5ccccc45)CC3)c(Cl)cc2N1 [ZIPRASIDONE] . Note: assay procedure not described here.
[A] > 10 µM

---

Biological target: D(1A) dopamine receptor (Homo sapiens, UniProt P21728); note: assay procedure not described here
Sequence (P21728 whole entry): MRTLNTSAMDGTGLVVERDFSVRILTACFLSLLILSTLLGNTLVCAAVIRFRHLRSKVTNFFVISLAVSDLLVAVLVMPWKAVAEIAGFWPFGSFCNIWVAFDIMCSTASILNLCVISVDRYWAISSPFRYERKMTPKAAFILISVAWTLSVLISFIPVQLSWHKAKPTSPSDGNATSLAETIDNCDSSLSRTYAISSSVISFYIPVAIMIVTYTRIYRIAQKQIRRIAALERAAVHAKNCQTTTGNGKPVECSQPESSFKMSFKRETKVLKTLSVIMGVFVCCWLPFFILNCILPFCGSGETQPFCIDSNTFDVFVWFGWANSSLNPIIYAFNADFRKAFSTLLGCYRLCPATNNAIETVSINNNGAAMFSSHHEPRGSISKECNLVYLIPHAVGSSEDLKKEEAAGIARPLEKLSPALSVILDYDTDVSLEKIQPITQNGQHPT
value.kind: AC50

The cases that follow already have their AC50 on record.
[Q] Using the record for "COc1ccc2c(C(=S)N(C)CC(=O)O)cccc2c1C(F)(F)F" , state its measured AC50.
[A] > 30 µM

[Q] Using the record for COC(=O)C[C@](O)(CCCC(C)(C)O)C(=O)O[C@@H]1C(OC)=C[C@]23CCCN2CCc2cc4c(cc2[C@H]13)OCO4 [OMACETAXINE MEPESUCCINATE] , state its measured AC50.
[A] > 30 µM

[Q] Using the record for "CC[C@]12CCCN3CCc4c(n(c5ccccc45)[C@@](O)(C(=O)OC)C1)[C@@H]32" , state its measured AC50.
[A] > 30 µM

---
[Q] Using the record for "O=C(O)Cc1ccccc1Nc1c(Cl)cccc1Cl" , state its measured AC50.
[A] > 3 µM

[Q] Using the record for "N=C(N)N/N=C/c1c(Cl)cccc1Cl" , state its measured AC50.
[A] 8.03 µM

[Q] Using the record for "c1ccc2c(SC3=NCCN3)c[nH]c2c1" , state its measured AC50.
[A] > 30 µM

[Q] Using the record for CC(CN1c2ccccc2Sc2ccccc21)N(C)C (configuration not stated) , state its measured AC50.
[A] 1.72 µM

[Q] Using the record for "Cc1cn([C@H]2O[C@@H](CO)[C@H](O)[C@H]2F)c(=O)[nH]c1=O" , state its measured AC50.
[A] > 30 µM

[Q] Using the record for "O=C(O)c1ccccc1" , state its measured AC50.
[A] > 30 µM

[Q] Using the record for Clc1ccc(C(Cn2ccnc2)OCc2csc3c(Cl)cccc23)c(Cl)c1 (configuration not stated) , state its measured AC50.
[A] 5.39 µM

[Q] Using the record for CC(C(=O)O)c1cccc(Oc2ccccc2)c1 (configuration not stated) , state its measured AC50.
[A] > 30 µM

[Q] Using the record for COc1ccc(OC)c(C(O)C(C)N)c1 (configuration not stated) , state its measured AC50.
[A] > 30 µM

---

Biological target: 3',5'-cyclic-AMP phosphodiesterase 4A (Homo sapiens, UniProt P27815); note: assay procedure not described here
Sequence (P27815 whole entry): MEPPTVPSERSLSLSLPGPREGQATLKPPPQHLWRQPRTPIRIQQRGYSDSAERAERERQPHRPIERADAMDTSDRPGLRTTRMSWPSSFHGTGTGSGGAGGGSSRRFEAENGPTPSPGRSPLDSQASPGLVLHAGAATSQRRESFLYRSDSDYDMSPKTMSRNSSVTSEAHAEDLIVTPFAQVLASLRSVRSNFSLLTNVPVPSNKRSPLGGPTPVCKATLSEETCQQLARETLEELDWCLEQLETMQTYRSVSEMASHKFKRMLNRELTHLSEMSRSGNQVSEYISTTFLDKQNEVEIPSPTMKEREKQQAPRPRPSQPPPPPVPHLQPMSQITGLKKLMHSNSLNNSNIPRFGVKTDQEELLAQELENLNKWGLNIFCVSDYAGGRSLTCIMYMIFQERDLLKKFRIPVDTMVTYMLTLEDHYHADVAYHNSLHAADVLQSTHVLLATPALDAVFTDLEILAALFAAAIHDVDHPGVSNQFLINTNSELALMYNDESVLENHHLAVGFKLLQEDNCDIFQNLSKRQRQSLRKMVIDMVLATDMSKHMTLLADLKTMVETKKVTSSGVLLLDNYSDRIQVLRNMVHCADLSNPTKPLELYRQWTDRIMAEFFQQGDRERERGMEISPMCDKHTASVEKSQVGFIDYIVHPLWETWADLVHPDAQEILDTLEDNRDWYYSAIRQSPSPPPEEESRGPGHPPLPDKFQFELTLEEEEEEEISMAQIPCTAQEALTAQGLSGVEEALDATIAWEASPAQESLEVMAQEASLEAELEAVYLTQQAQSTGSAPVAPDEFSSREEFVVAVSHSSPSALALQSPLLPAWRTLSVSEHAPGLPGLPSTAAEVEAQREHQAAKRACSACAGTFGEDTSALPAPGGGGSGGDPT
Assay type: functional
This section presents compounds with their documented AC50 values.

The cases that follow already have their AC50 on record.
[Q] Using the record for Cc1ccsc1C(=CCCN1CCC[C@@H](C(=O)O)C1)c1sccc1C [TIAGABINE] , state its measured AC50.
[A] 23.6 µM

[Q] Using the record for CC1(C)S[C@@H]2[C@H](/N=C/N3CCCCCC3)C(=O)N2[C@H]1C(=O)O [AMDINOCILLIN] , state its measured AC50.
[A] > 30 µM

[Q] Using the record for COc1cc(C)c2c(Oc3cccc(C(F)(F)F)c3)c(OC)cc(NC(C)CCCN)c2n1 (centres undefined) [TAFENOQUINE] , state its measured AC50.
[A] > 30 µM

Then there is this compound:
[Q] Using the record for COc1ccc2[nH]c([S+]([O-])Cc3ncc(C)c(OC)c3C)nc2c1 (centres undefined) [OMEPRAZOLE] , state its measured AC50.
[A] > 30 µM
